Test system: HCV Replicon IB
Protocol: HCV replicon assay in Huh-7 cells, genotype 1b (Rluc luciferase readout)
Type: cell-based, hepatitis C virus
Test Settings: Hepatitis C virus, 72 h; 10 uM; 1b-Rluc replicon, Huh-7 cells, 3 days; read-out: Inhibition @ 10 uM in 1b-Rluc
The following molecules are shown together with reported inhibition at 10 µM values.
Give the number; % is assumed, so skip it.

Looking up Cc1cc(-c2nnc(NC[C@@H](O)CO)s2)nc2c(C(F)(F)F)cc(C3CC3)cc12 [Compound 303] , I see its inhibition at 10 µM listed as 98.2

Looking up COc1cc(C(F)(F)F)c2nc(C(=O)NCc3ccccn3)cc(C)c2c1 [Compound 182] , I see its inhibition at 10 µM listed as 99.3

Looking up Cc1cc(C(=O)NCC2CCCCO2)nc2c(C(F)(F)F)cc(C3CC3)cc12 (centres unmarked) [Compound 81] , I see its inhibition at 10 µM listed as 100

Looking up Cc1cc(C(=O)NCC2OCCO2)nc2c(C(F)(F)F)cc(C3CC3)cc12 [Compound 96] , I see its inhibition at 10 µM listed as 99.9

Looking up O=C(NCc1ccccn1)c1cc(Cl)c2cc(OC(F)(F)F)cc(C(=O)O)c2n1 [Compound 241] , I see its inhibition at 10 µM listed as 7.94

Looking up Cc1cc(C(=O)NCC2CCCCC2)nc2c(C(F)(F)F)cc(-c3ccccc3)cc12 [Compound 172] , I see its inhibition at 10 µM listed as 95.2

Looking up Cc1cc(C(=O)NCCC#N)nc2c(C(F)(F)F)cc(-c3ccccc3)cc12 [Compound 104] , I see its inhibition at 10 µM listed as 70.3

Looking up CC(=O)c1cc(C(F)(F)F)c2nc(C(=O)NCc3ccccn3)cc(C)c2c1 [Compound 160] , I see its inhibition at 10 µM listed as 93.5

Looking up Cc1cc(C(=O)NCCC2OCCO2)nc2c(C(F)(F)F)cc(C3CC3)cc12 [Compound 106] , I see its inhibition at 10 µM listed as 99.7
